- measurement-description: Inhibition of Drosophila melanogaster LM408 by spectrophotometry
In this section we review reported pIC50 values for a set of compounds.
The read-out pIC50 is expressed as -log10 of concentration in moles per litre.

Observe how each entry below is paired with its result.
compound: [O-][S+](CCc1ccccc1)[C@H]1O[C@H](CO)[C@@H](O)[C@H](O)[C@@H]1O (stereo partly specified)
number: 2.82
//
compound: CS[C@@H]1[C@@H](N)[C@@H](O)[C@@H](O)[C@H]1O [MANNOSTATIN A]
number: 5.52
//
compound: O[C@H]1[C@H]2[C@H](O)CCCN2C[C@H]1O [TRIDOLGOSIR]
number: 7.96
//
compound: CCCCCCCCS(=O)(=O)[C@H]1O[C@H](CO)[C@@H](O)[C@H](O)[C@@H]1O
number: 2.70
//
compound: O=S(=O)(CCc1ccccc1)[C@H]1O[C@H](CO)[C@@H](O)[C@H](O)[C@@H]1O
number: 3.00

Kindly consider the entry below.
The compound listed as CCCCCCS(=O)(=O)[C@H]1O[C@H](CO)[C@@H](O)[C@H](O)[C@@H]1O has a reported pIC50 of 2.70

* * *

- measurement-description: Inhibition of Jack bean alpha-mannosidase
- Parameters: species or system Canavalia ensiformis
experimental-endpoint: Ki (nM)
Express it in nM; write the number only.

The molecule listed as C[C@@H]1N[C@H](S(=O)(=O)O)[C@@H](O)[C@H]1O has a reported Ki of 50
